Parameter: fluorescence slope. Scope: all listed entries.
assayed-system: Muscarinic acetylcholine receptor M4 (Homo sapiens)
experiment: compounds altering M4/GIRK thallium flux, either direction, primary screen, M4 allosteric agonist project, cell-based, HEK293 M4/GIRK, BTC-AM (AID 625);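 further: thallium influx through GIRK channels coupled to M4 in HEK293 cells with BTC-AM dye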
conditions-used: at 10 µM, actives lie on both sides
No unit in the answer, please; the number alone is enough.

Example entries begin here.
{"columns": ["smiles-repr", "fluorescence slope"],
 "data": [
  ["O=C1C=C(NCCNc2c(F)c(F)c(CO)c(F)c2F)CCC1", 0.00657],
  ["CCCc1nc(N2CCOCC2)c(C#N)c2c1CCCC2", 0.00443],
  ["Cn1c(SCC(=O)N2CCOCC2)nnc1-c1cccc(NC(=O)c2ccccc2F)c1", 0.00616]
]}

Q) Need fluorescence slope, item Cc1cc(C)c2c(N)c(C(=O)c3ccccc3)oc2n1
A) 0.00618

Measured values drawn from PubChem BioAssay for this set.
